Experiment: Cytotoxicity against human HuH7-J20 cells expressing secreted alkaline phosphatase reporter gene assessed as cell viability incubated for 1 hr by WST-1 assay
Assay type: cell-based, Huh-7
Overview of reported CC50 at 1 h across a group of molecules:

Consider the worked cases shown below.
# Smiles notation, Test result
rows = [
    ("Cl.N=C(NC(=O)N1CCN(c2ccccc2)CC1)Nc1ccccc1", "> 30 µM"),
    ("Cl.N=C(NCc1ccccc1)NC(=O)N1CCN(c2ccc(Cl)cc2)CC1", "64 µM"),
]

From here, focus on the item given below.
Q. State the recorded CC50 at 1 h for this entry: `Cl.N=C(NC(=O)N1CCN(c2ccc(C34CC5CC(CC(C5)C3)C4)cc2)CC1)Nc1ccc(Cl)cc1`
A. 73 µM

###

Assay: Cytotoxicity against human HuH7-J20 cells expressing secreted alkaline phosphatase reporter gene assessed as cell viability incubated for 1 hr by WST-1 assay
Assay type: cell-based, Huh-7
Each entry below lists one item and its recorded CC50 at 1 h value.
Write the answer as a number in µM, unit excluded.

Here is how some compounds turned out for CC50 at 1 h.
# Smiles notation, Assay readout, Test result
records = [
    ("Cl.N=C(NC(=O)N1CCN(c2cc(Cl)cc(Cl)c2)CC1)Nc1ccc(Cl)cc1", "CC50 at 1 h", 63),
    ("CC(C)(C)OC(=O)NC(=N)NC(=O)NCc1ccccc1", "CC50 at 1 h", 92.9),
    ("Cl.N=C(N)NC(=O)NCc1ccccc1", "CC50 at 1 h", 324),
]

// below: CC50 at 1 h requested for another compound
Q. State the recorded CC50 at 1 h for this entry: `Cc1ccc(N2CCN(C(=O)NC(=N)Nc3ccccc3)CC2)cc1.Cl`
A. 26.4

###

Reported EC50 values for a set of compounds
Tested on: Hepatitis C virus
Experiment: Antiviral activity against HCV JFH1 infected in human HuH7-J20 cells assessed as inhibition of viral life cycle by measuring secreted alkaline phosphatase level preincubated with cells for 1 hr followed by viral inoculation for 3 hrs and fresh drug administration every 24 hrs at 1/10th of initial concentration for 48 hrs measured at 72 hrs
Format: functional, cell-based, Hepacivirus hominis
Settings: genotype 2a JFH-1, Huh-7
Reply with just the number (in µM).

Use the examples below as a reference point.
# Smiles notation, Measure unit, EC50
measured = [
    ("Cl.N=C(NC(=O)N1CCN(c2ccc(C34CC5CC(CC(C5)C3)C4)cc2)CC1)Nc1ccc(Cl)cc1", "µM", 13.9),
    ("Cl.N=C(NC(=O)N1CCN(c2cc(Cl)cc(Cl)c2)CC1)Nc1ccc(Cl)cc1", "µM", 1.69),
    ("NC(=O)c1ncn([C@@H]2O[C@H](CO)[C@@H](O)[C@H]2O)n1", "µM", 33.5),
    ("Cc1ccc(N2CCN(C(=O)NC(=N)Nc3ccccc3)CC2)cc1.Cl", "µM", 4.7),
    ("Cl.N=C(NC(=O)N1CCN(c2ccccc2)CC1)Nc1ccc(Cl)cc1", "µM", 1.3),
]

Q. API: value(readout= EC50, system= Hepatitis C virus, query= `CC(C)(C)OC(=O)NC(=N)NC(=O)NCc1ccccc1` )
A. 6.17

Q. Hello, I am looking for reported EC50 with Hepatitis C virus for `Cl.N=C(NC(=O)N1CCN(c2ccccc2)CC1)Nc1ccccc1` . Could you help?
A. 8.7

Q. Reported EC50 for Hepatitis C virus, given `Cl.N=C(NCc1ccccc1)NC(=O)N1CCN(c2ccc(Cl)cc2)CC1` ?
A. 2.41

Q. Which EC50 is reported with Hepatitis C virus for this entry: `Cl.N=C(N)NC(=O)NCc1ccccc1` ?
A. 35.3
